The entries below come with measured Kb values attached.
# system_tested: Cysteinyl leukotriene receptor 1 (Cavia porcellus, UniProt Q2NNR5)
# Sequence (Q2NNR5 whole entry): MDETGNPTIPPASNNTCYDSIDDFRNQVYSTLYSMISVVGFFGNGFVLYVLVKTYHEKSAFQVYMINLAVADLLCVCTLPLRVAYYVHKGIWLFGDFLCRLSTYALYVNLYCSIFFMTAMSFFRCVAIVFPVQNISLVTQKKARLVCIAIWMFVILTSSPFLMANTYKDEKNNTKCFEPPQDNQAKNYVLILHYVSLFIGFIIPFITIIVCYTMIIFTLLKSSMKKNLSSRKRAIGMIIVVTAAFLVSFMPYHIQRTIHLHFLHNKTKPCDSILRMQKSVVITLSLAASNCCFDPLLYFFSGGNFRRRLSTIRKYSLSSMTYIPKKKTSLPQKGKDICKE
# experiment_description: Inhibition of Leukotriene D4 induced contraction of guinea-pig trachea was determined
# Assay type: functional, tissue-based
# assay_setup: read-out: pA2 (converted)
Respond numerically; units are nM and should not be typed.

Known Kb results, listed for orientation:
INSERT INTO results (compound, endpoint_name, experimental_value) VALUES
  ('C[C@@H](CS[C@H](CCc1ccccc1C(C)(C)O)c1cccc(OCc2ccc3ccc(Cl)cc3n2)c1)C(=O)[O-].[Na+]', 'Kb', 0.398),
  ('C[C@H](CS[C@H](CCc1ccccc1C(C)(C)O)c1cccc(OCc2ccc3ccc(Cl)cc3n2)c1)C(=O)[O-].[Na+]', 'Kb', 0.794),
  ('C[C@@H](CS[C@@H](CCc1ccccc1C(C)(C)O)c1cccc(OCc2ccc3ccc(Cl)cc3n2)c1)C(=O)[O-].[Na+]', 'Kb', 1.58);

Exam item: Returns the measured Kb for the input compound. Input: "C[C@H](CS[C@@H](CCc1ccccc1C(C)(C)O)c1cccc(OCc2ccc3ccc(Cl)cc3n2)c1)C(=O)[O-].[Na+]"
Marked response: 5.01

Exam item: Returns the measured Kb for the input compound. Input: CCC[C@H](CS[C@@H](CCc1ccccc1C(C)(C)O)c1cccc(/C=C/c2ccc3ccc(Cl)cc3n2)c1)C(=O)O [L-695499]
Marked response: 1.58

Exam item: Returns the measured Kb for the input compound. Input: CN(C)C(=O)CCS[C@H](SCCC(=O)O)c1cccc(/C=C/c2ccc3ccc(Cl)cc3n2)c1 [MK-571]
Marked response: 1.58
